# protocol_description: qHTS assay to identify small molecule antagonists of the retinoic acid receptor (RAR) signaling pathway (AID 1159552; note: nearly all actives have a fitted effect of over 50% in size)
# experimental_context: C3RL4 RARE luciferase reporter, retinol-stimulated, 6 h; series mostly up to 92.4 µM
Inconclusive results are not listed. Active and inactive are the calls of the source. Calls come from the whole dose curve; as a rule, active = well fitted inhibition curve with a large enough effect in the repeat runs; inconclusive = weak or mixed curves, or effect the other way; inactive = no such curve, though single readings can be large or run the other way.
Write down the outcome that applies. Available outcomes: label 1 = active, label 0 = inactive

molecule	assigned_class
CC(CO)CO	label 0
Nc1nnc(-c2ccc([N+](=O)[O-])o2)o1	label 0
Oc1ccc(Cl)c2cccnc12	label 0
C=CC(=O)OCC1CC2CC1C1CCC(COC(=O)C=C)C21 (stereo unspecified)	label 1
O=C(/C=C/c1ccccc1)OCCc1ccccc1	label 0

Moving on to the next molecule.
Prompt line: Outcome? O=c1[nH]c2ccc(Cl)cc2o1
Response line: label 0

# credit: PubChem BioAssay (Tox21)
